From: patent US8557816B2

- TGT: AuroraA-TPX2 (Homo sapiens)
- Construct: 20 μL of AuroraA-TPX2 KD GST for a final volume of about 41 μL; GST
- Sequence (O14965 133-383 limits assumed): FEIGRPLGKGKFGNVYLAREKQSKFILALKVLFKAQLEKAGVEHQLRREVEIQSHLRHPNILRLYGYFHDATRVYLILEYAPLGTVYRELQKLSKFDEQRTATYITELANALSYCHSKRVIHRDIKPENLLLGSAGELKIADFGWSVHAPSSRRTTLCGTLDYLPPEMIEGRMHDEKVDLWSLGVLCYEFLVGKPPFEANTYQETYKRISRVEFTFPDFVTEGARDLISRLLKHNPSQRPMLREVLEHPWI
- Sequence (Q9ULW0 1-43 partner limits assumed): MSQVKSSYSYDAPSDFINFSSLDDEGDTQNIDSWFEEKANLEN
- ASSAY REMARKS: AuroraA-TPX2 Homogeneous Time Resolved Fluorescent (HTRF) kinase assay
- Assay type: biochemical
- CONDITION SET: average; read-out: AurA_IC50_IP (uM Avg)
ENDPOINT LABEL: IC50 (µM)
Output spec: scalar in µM, unitless text.

Req: Sample COc1cnc2c(Sc3ccc(Nc4nnc(-c5ccc(Cl)cn5)c5ccccc45)cc3)ccnc2c1 [compound 325] — what was its IC50?
Resp: 0.013

Req: Request the reported IC50 associated with c1cnc2c(Sc3ccc(Nc4nnc(-c5ccc6c(c5)CCO6)c5ccccc45)cc3)ccnc2c1 [compound 445]
Resp: 0.03

Req: For COc1cnc2c(Oc3ccc(Nc4nnc(-c5ccc(F)nc5)c5ccccc45)cc3)ccnc2c1 [compound 190] , what is its reported IC50?
Resp: 0.052

Req: Can you look up the measured IC50 of Cc1ccc(-c2nnc(Nc3ccc(Oc4ccnc5ccccc45)c(F)c3)c3ccccc23)cc1 [compound 161] for me?
Resp: 0.027

Req: Item under review: Clc1ccc(-c2nnc(Nc3ccc(Sc4ccnc5c4CCCN5)cc3)c3ccccc23)cc1 [compound 570] . Reported IC50?
Resp: 0.05

Req: Endpoint output: IC50 of Fc1cc(Nc2nnc(-c3ccccc3)c3ccccc23)ccc1Oc1ccnc2ccccc12 [compound 115] . Value?
Resp: 0.163

Req: Value lookup for IC50; key = Clc1ccc(-c2nnc(Nc3ccc(Oc4ccnc5ccncc45)cc3)c3ccccc23)cc1 [compound 423]
Resp: 0.047

Req: Requested field: IC50. Item: COc1cnc2c(Oc3ccc(Nc4nnc(-c5ccc(C#N)cc5)c5ccccc45)cc3)ccnc2c1 [compound 181]
Resp: 0.171

Req: Could you tell me which IC50 is on file for COc1ccc2c(Oc3ccc(Nc4nnc(-c5ccccc5)c5ccccc45)cc3)c(F)cnc2c1 [compound 164] ?
Resp: 0.04

Req: Look up IC50 for this compound: COc1cnc2c(Oc3ccc(Nc4nnc(-c5ccccc5)c5ccccc45)cc3)ccnc2c1 [compound 79]
Resp: 0.028

Req: Please look up its IC50: Clc1cccc(-c2nnc(Nc3ccc(Sc4ccnc5ccsc45)cc3)c3ccccc23)c1 [compound 518]
Resp: 0.218

Req: I have this compound here, Clc1ccc(-c2nnc(Nc3ccc(Sc4ccnc5[nH]cnc45)cc3)c3ccccc23)cc1 [compound 363] , and I need its recorded IC50.
Resp: 0.019

Req: I have this compound here, COc1cnc2c(Oc3ccc(Nc4nnc(-c5cc(Cl)cs5)c5ccccc45)cc3)ccnc2c1 [compound 316] , and I need its recorded IC50.
Resp: 0.014

Req: Query: IC50; subject: COc1ccc(-c2nnc(Nc3ccc(Sc4ccnc5cc(OC)cnc45)cc3)c3ccccc23)cc1 [compound 357]
Resp: 0.029

Req: If you can, please state the reported IC50 value of COc1cnc2c(Oc3ccc(Nc4nnc(-c5cc(C)c(C)s5)c5ccccc45)cc3)ccnc2c1 [compound 260] .
Resp: 0.008

Req: Entry COc1cc2nccc(Oc3ccc(Nc4nnc(-c5ccccc5)c5ccccc45)cc3)c2cc1C(N)=O [compound 225] has what IC50?
Resp: 0.023

Req: // returns reported IC50 for input COc1cnc2c(Oc3ccc(Nc4nnc(-c5ccc6c(c5)OCCN6C)c5ccccc45)cc3)ccnc2c1 [compound 157]
Resp: 0.012

Req: Give the measured IC50 of COc1cnc2c(Oc3ccc(Nc4nnc(-c5ncc(C)s5)c5ccccc45)cc3)ccnc2c1 [compound 189] .
Resp: 0.022

Req: # lookup: IC50 of COc1cnc2c(Oc3ccc(Nc4nnc(-c5cnc6ccccc6c5)c5ccccc45)cc3)ccnc2c1 [compound 182]
Resp: 0.023

Req: I would be grateful if you could share the reported IC50 for COc1cnc2c(Oc3ccc(Nc4nnc(N5CCN(S(C)(=O)=O)CC5)c5ccccc45)cc3)ccnc2c1 [compound 607] .
Resp: 2.82

Req: May I ask what IC50 has been recorded for Clc1ccc(-c2nnc(Nc3ccc(Sc4ccnc5ccncc45)cc3)c3ccccc23)nc1 [compound 430] ?
Resp: 0.084

Req: Name the recorded IC50 for COc1cc2nccc(Sc3ccc(Nc4nnc(-c5cc(C)cs5)c5ccccc45)cc3)c2cn1 [compound 494] .
Resp: 0.026

Req: Would you kindly share the measured IC50 for Clc1ccc(-c2nnc(Nc3ccc(Oc4ccnc5ccoc45)cc3)c3ccccc23)cc1 [compound 483] ?
Resp: 0.583

Req: Record request: IC50 value, item COc1cc2nccc(Oc3ccc(Nc4nnc(-c5ccc(C)cc5)c5ccccc45)cc3)c2cc1C(N)=O [compound 211]
Resp: 0.006

Req: Which IC50 is reported for this compound? COc1cnc2c(Oc3ccc(Nc4nnc(-c5cccc(C)c5)c5ccccc45)cc3)ccnc2c1 [compound 317]
Resp: 0.018

Req: Any idea what IC50 was measured for c1ccc(-c2nnc(Nc3ccc(Sc4ccnc5[nH]cnc45)cc3)c3ccccc23)cc1 [compound 362] ?
Resp: 0.066

Req: # lookup: IC50 of c1ccc(-c2nnc(Nc3ccc(Sc4ccnc5ccoc45)cc3)c3ccccc23)cc1 [compound 466]
Resp: 0.431

Req: Data request, read-out IC50, for COc1cnc2c(Oc3ccc(Nc4nnc(-c5c(C)nn(C)c5C)c5ccccc45)cc3)ccnc2c1 [compound 261]
Resp: 1.61

Req: Param item = CCc1cc(-c2cc(C)cs2)nnc1Nc1ccc(Oc2ccnc3cc(OC)cnc23)cc1 [compound 210] ; retrieve measured IC50.
Resp: 0.031

Req: What value of IC50 has been reported for the following compound? COc1ccc2nccc(Oc3ccc(Nc4nnc(-c5ccccc5)c5ccccc45)cc3)c2n1 [compound 347]
Resp: 0.067

Req: Reported IC50 for Cc1ccc(-c2nnc(Nc3ccc(Sc4ccnc5ccncc45)cc3)c3ccccc23)nc1 [compound 433] : what is it?
Resp: 0.056
